- PROCEDURE SUMMARY: Cmax in ICR mouse plasma at 10 mg/kg, po by LC/MS/MS analysis
- Format: ADME, organism-based
- Design: dose 10 mg/kg, route oral
PARAMETER MEASURED: Cmax (ng/mL)
Kindly provide the numeric value in ng/mL only, without the unit symbol.

Identify Cmax associated with the molecule Cc1cc(-n2nc(Cc3cc(F)cc(C(F)(F)F)c3)nc2C)ccc1C(N)=O [TP-024]
688

* * *

- PROCEDURE SUMMARY: Cmax in ICR mouse brain at 30 mg/kg, po by LC/MS/MS analysis
- Assay type: ADME, organism-based
- Set-up: dose 30 mg/kg, route oral
PARAMETER MEASURED: Cmax (ng/g)
Express it in ng/g; write the number only.

Give reported Cmax value for Cc1cc(-n2nc(Cc3cc(F)cc(C(F)(F)F)c3)nc2C)ccc1C(N)=O [TP-024]
2330

* * *

- SUBJECT OF TEST: G-protein coupled receptor 52 (Homo sapiens)
- Sequence (Q9Y2T5 whole entry): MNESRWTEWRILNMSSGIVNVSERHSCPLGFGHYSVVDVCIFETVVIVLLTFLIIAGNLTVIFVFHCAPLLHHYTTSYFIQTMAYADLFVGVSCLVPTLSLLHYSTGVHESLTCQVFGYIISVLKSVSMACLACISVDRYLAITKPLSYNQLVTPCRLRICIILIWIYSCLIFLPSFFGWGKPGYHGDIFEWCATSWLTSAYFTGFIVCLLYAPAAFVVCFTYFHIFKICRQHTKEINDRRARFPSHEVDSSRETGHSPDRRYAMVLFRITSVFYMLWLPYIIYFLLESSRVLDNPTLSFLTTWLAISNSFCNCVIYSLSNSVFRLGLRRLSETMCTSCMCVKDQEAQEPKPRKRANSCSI
- PROCEDURE SUMMARY: Agonist activity at human GPR52 expressed in CHO cells assessed as increase in cAMP level after 30 mins by AlphaScreen assay relative to (N-(2-hydroxyethyl)-3-(2-(3-(trifluoromethyl)benzyl)-1-benzofuran-4-yl)benzamide)
- Format: functional, cell-based
Binary label based on Emax with cut-off 90%: below gives fulfilled, not below gives not fulfilled.

Examples with answers:
>  <STRUCTURE SMILES>
Cc1cc(-c2cc(Cc3cc(F)cc(C(F)(F)F)c3)nn2C)ccc1C(N)=O

>  <CAT>
not fulfilled

$$$$
>  <STRUCTURE SMILES>
Cc1cc(-c2sc(Cc3cc(F)cc(C(F)(F)F)c3)nc2C)ccc1C(N)=O

>  <CAT>
not fulfilled

$$$$
>  <STRUCTURE SMILES>
Cc1nc(Cc2cccc(C(F)(F)F)c2)sc1-c1ccc(C(N)=O)cn1

>  <CAT>
fulfilled

$$$$
>  <STRUCTURE SMILES>
Cc1nc(Cc2cccc(C(F)(F)F)c2)sc1-c1ccc(C(N)=O)c(F)c1

>  <CAT>
fulfilled

$$$$
>  <STRUCTURE SMILES>
CCc1cc(-c2sc(Cc3cccc(C(F)(F)F)c3)nc2C)ccc1C(N)=O

>  <CAT>
fulfilled

$$$$
>  <STRUCTURE SMILES>
Cc1cc(-c2sc(Cc3ccc(Cl)cc3)nc2C)ccc1C(N)=O

>  <CAT>
fulfilled

$$$$

hey, is Emax for Cc1cc(-c2sc(Cc3cccc(C(F)(F)F)c3)nc2C)ccc1C(N)=O lower than 90% or not?
fulfilled

Is Emax of Cc1cc(-c2sc(Cc3ccccc3Cl)nc2C)ccc1C(N)=O strictly below 90%?
fulfilled

* * *

- PROCEDURE SUMMARY: Metabolic stability in mouse liver microsomes at 1 uM after 15 to 30 mins in presence of NADPH by LC/MS/MS analysis
- Format: ADME, microsome
- EXPERIMENTAL CONTEXT: read-out: Stability
PARAMETER MEASURED: microsomal CLint at 1 µM (µL/min/mg)
Numeric answer only, unit µL/min/mg assumed.

Provide only the value of recorded microsomal CLint at 1 µM for Cc1cc(-n2nc(Cc3cc(F)cc(C(F)(F)F)c3)nc2C)ccc1C(N)=O
24

* * *

- PROCEDURE SUMMARY: Cmax in ICR mouse brain at 10 mg/kg, po by LC/MS/MS analysis
- Assay type: ADME, organism-based
- Parameters: dose 10 mg/kg, route oral
PARAMETER MEASURED: Cmax (ng/g)
The answer is to be given in ng/g; state only the numeric part.

Supply measured Cmax of Cc1cc(-n2nc(Cc3cc(F)cc(C(F)(F)F)c3)nc2C)ccc1C(N)=O [TP-024] in your reply.
1020

* * *

- SUBJECT OF TEST: UniProt:Q9Y2T5
- PROCEDURE SUMMARY: Agonist activity at human GPR52 expressed in CHO cells assessed as increase in cAMP level after 30 mins by AlphaScreen assay relative to (N-(2-hydroxyethyl)-3-(2-(3-(trifluoromethyl)benzyl)-1-benzofuran-4-yl)benzamide)
- Format: functional, cell-based
Short version: Emax at least 90% is criterion met, less is criterion not met.

Some solved cases for reference:
>  <STRUCTURE SMILES>
Cc1cc(-c2sc(Cc3cccc(N(C)C)c3)nc2C)ccc1C(N)=O

>  <CAT>
criterion met

$$$$
>  <STRUCTURE SMILES>
Cc1cc(-n2cc(Cc3cc(F)cc(C(F)(F)F)c3)nc2C)ccc1C(N)=O

>  <CAT>
criterion met

$$$$
>  <STRUCTURE SMILES>
Cc1nc(Cc2cccc(C(F)(F)F)c2)sc1-c1ccc(C(N)=O)c(C(C)C)c1

>  <CAT>
criterion not met

$$$$

For this molecule, is measured Emax 90% or higher? Cc1cc(-n2nc(Cc3cc(F)cc(C(F)(F)F)c3)nc2C)ccc1C(N)=O
criterion met

Determine whether this molecule has Emax no lower than 90%: Cc1cc(-c2sc(Cc3cccc(Cl)c3)nc2C)ccc1C(N)=O
criterion not met

Hi team, for Cc1cc(-c2sc(Cc3cccc(F)c3)nc2C)ccc1C(N)=O , is the recorded Emax at or above 90%?
criterion not met

Dear colleague, could you confirm whether Cc1nc(Cc2cccc(C(F)(F)F)c2)sc1-c1ccc(C(N)=O)cc1 has Emax at or above 90%?
criterion met

Quick check, Emax >= 90%? Cc1cc(C(N)=O)ccc1-c1sc(Cc2cccc(C(F)(F)F)c2)nc1C
criterion not met

Is reported Emax greater than or equal to 90% here: COc1cccc(Cc2nc(C)c(-c3ccc(C(N)=O)c(C)c3)s2)c1
criterion not met

* * *

- SUBJECT OF TEST: G-protein coupled receptor 52 (Homo sapiens)
- PROCEDURE SUMMARY: Agonist activity at human GPR52 expressed in CHO cells assessed as increase in cAMP level after 30 mins by AlphaScreen assay
Recorded EC50 values for a group of compounds are listed next.
Please report the result as a number followed by the unit.

Determine its reported EC50: Cc1cc(-c2sc(Cc3cccc(N(C)C)c3)nc2C)ccc1C(N)=O
690 nM

Give the measured EC50 for Cc1cc(-n2nc(Cc3cc(F)cc(C(F)(F)F)c3)nc2C)ccc1C(N)=O [TP-024]
75 nM

State, in one line, measured EC50 of Cc1cc(C(N)=O)ccc1-c1sc(Cc2cccc(C(F)(F)F)c2)nc1C
1400 nM

// Input: Cc1nc(Cc2cccc(C(F)(F)F)c2)sc1-c1ccc(C(N)=O)c(C(C)C)c1 . Output its EC50 only.
370 nM

Note EC50 for the compound shown: Cc1nc(Cc2cccc(C(F)(F)F)c2)sc1-c1ccc(C(N)=O)cc1
220 nM

Look up EC50 of Cc1cc(-c2sc(Cc3cc(F)cc(C(F)(F)F)c3)nc2C)ccc1C(N)=O and report it.
11 nM

Read off the recorded EC50 for Cc1cc(-c2sc(Cc3cc(F)cc(Cl)c3)nc2C)ccc1C(N)=O
25 nM

Consider the compound Cc1cc(-c2cc(Cc3cc(F)cc(C(F)(F)F)c3)nn2C)ccc1C(N)=O and give its recorded EC50.
23 nM

Assign EC50 to the following record: Cc1cc(-c2sc(Cc3cccc(F)c3)nc2C)ccc1C(N)=O
260 nM

Specify measured EC50 for COc1cc(-c2sc(Cc3cccc(C(F)(F)F)c3)nc2C)ccc1C(N)=O .
170 nM

* * *

- PROCEDURE SUMMARY: Tmax in ICR mouse brain at 30 mg/kg, po by LC/MS/MS analysis
- Format: ADME, organism-based
PARAMETER MEASURED: Tmax
Note: a bare number is incomplete; add the unit.

Retrieve Tmax measured for Cc1cc(-n2nc(Cc3cc(F)cc(C(F)(F)F)c3)nc2C)ccc1C(N)=O and print it.
1 h

* * *

- PROCEDURE SUMMARY: MRT in ICR mouse plasma at 10 mg/kg, po by LC/MS/MS analysis
- Type: ADME, organism-based
PARAMETER MEASURED: MRT
Kindly write the number and append the unit.

Using known records, supply MRT for Cc1cc(-n2nc(Cc3cc(F)cc(C(F)(F)F)c3)nc2C)ccc1C(N)=O
2.29 h

* * *

- PROCEDURE SUMMARY: AUC (0 to 24 hrs) in ICR mouse plasma at 10 mg/kg, po by LC/MS/MS analysis
- Type: ADME, organism-based
- Design: time < 24 hr, dose 10 mg/kg, route oral
PARAMETER MEASURED: AUC(0-t) at 24 h (ng·h/mL)
Use ng·h/mL as the unit, but write only the number.

Name the recorded AUC(0-t) at 24 h of the compound listed here: Cc1cc(-n2nc(Cc3cc(F)cc(C(F)(F)F)c3)nc2C)ccc1C(N)=O [TP-024]
2430

* * *

- PROCEDURE SUMMARY: Ratio of AUC (0 to 24 hrs) in ICR mouse brain to plasma at 10 mg/kg, po
- Type: ADME, organism-based
- EXPERIMENTAL CONTEXT: brain and plasma, read-out: Ratio AUC
PARAMETER MEASURED: Kp
Please state the value as a number alone, without comment.

Answer with reported Kp of Cc1cc(-n2nc(Cc3cc(F)cc(C(F)(F)F)c3)nc2C)ccc1C(N)=O
1.53
